Biological target: CDK2/cyclin E1 complex (Homo sapiens (Human))
Assay: In vitro enzymatic inhibitory activity test, CDK2
Conditions: Caliper mobility shift, 180 min at 27° C.
Structures can show the parent of a compound that is named as a salt.
ENDPOINT_NAME: IC50 (µM)

molecule=C[C@H]1COCCN1c1ccc2c(-c3nc(N[C@H]4CCC5(CC5)NC4)ncc3C(F)(F)F)c[nH]c2n1 readout_number=37.6
molecule="FC(F)(F)c1cnc(N[C@H]2CCCNC2)nc1-c1c[nH]c2nc(C3CCCCO3)ccc12 (stereo partly drawn) [Compound 30, formate]" readout_number=3.26
molecule="FC(F)(F)c1cnc(N[C@H]2CCCNC2)nc1-c1c[nH]c2nc(N3CC4CCC3CO4)ccc12 (stereo partly drawn)" readout_number=3.63
molecule="CC1(O)CCN(c2ccc3c(-c4nc(N[C@H]5CCCNC5)ncc4C(F)(F)F)c[nH]c3n2)C1 (stereo partly drawn)" readout_number=4.38
molecule="FC(F)(F)c1cnc(N[C@H]2CCCNC2)nc1-c1c[nH]c2nc(N3CCCC4(CCOC4)C3)ccc12 (stereo partly drawn)" readout_number=4.5
molecule=C[C@H]1COCCN1c1ccc2c(-c3nc(N[C@@H]4CNCC(F)(F)C4)ncc3C(F)(F)F)c[nH]c2n1 readout_number=9.3
molecule=FC(F)(F)c1cnc(N[C@H]2CCCNC2)nc1-c1c[nH]c2nc(N3CCC4(CCO4)CC3)ccc12 readout_number=2.88
molecule=C[C@@H]1CNC[C@@H](Nc2ncc(C(F)(F)F)c(-c3c[nH]c4nc(N5CCOC[C@@H]5C)ccc34)n2)C1 readout_number=19.5
molecule=FC(F)(F)c1cnc(N[C@H]2CCCNC2)nc1-c1c[nH]c2nc(C3=CCCCO3)ccc12 readout_number=2.15

* * *

Target: CDK2/cyclin E1 complex (Homo sapiens (Human))
Assay: In vitro enzymatic inhibitory activity test, CDK2
Type: biochemical
Conditions: Caliper mobility shift, 180 min at 27° C.
pIC50: −log10 of the molar value. Where a name gives a salt, the structure may show the parent alone.
ENDPOINT_NAME: pIC50

molecule="FC(F)(F)c1cnc(N[C@H]2CCCNC2)nc1-c1c[nH]c2nc(C3CCOC3)ccc12 (some centres unmarked) [Compound 29]" measurement_target="CDK2/cyclin E1 complex (Homo sapiens (Human))" endpoint_name=pIC50 bound_sign== readout_number=5.90
molecule="CC[C@H]1COCCN1c1ccc2c(-c3nc(N[C@H]4CCCNC4)ncc3C(F)(F)F)c[nH]c2n1 [Compound 104]" measurement_target="CDK2/cyclin E1 complex (Homo sapiens (Human))" endpoint_name=pIC50 bound_sign== readout_number=5.81
molecule="FC(F)(F)c1cnc(N[C@H]2CCCNC2)nc1-c1c[nH]c2nc(N3CCCC4(CCOCC4)C3)ccc12 [Compound 10]" measurement_target="CDK2/cyclin E1 complex (Homo sapiens (Human))" endpoint_name=pIC50 bound_sign== readout_number=5.68
molecule="C[C@H]1COCCN1c1ccc2c(-c3nc(N[C@H]4CCCNC4)ncc3C(F)(F)F)c[nH]c2n1 [Compound 18]" measurement_target="CDK2/cyclin E1 complex (Homo sapiens (Human))" endpoint_name=pIC50 bound_sign== readout_number=5.18
molecule="FC(F)(F)c1cnc(N[C@H]2CCCNC2)nc1-c1c[nH]c2nc(N3CCOC[C@@H]3C(F)(F)F)ccc12 [Compound 33]" measurement_target="CDK2/cyclin E1 complex (Homo sapiens (Human))" endpoint_name=pIC50 bound_sign== readout_number=5.49
molecule="FC(F)(F)c1cnc(N[C@H]2CCCNC2)nc1-c1c[nH]c2nc(N3C[C@@H]4C[C@H]3CO4)ccc12 [Compound 13]" measurement_target="CDK2/cyclin E1 complex (Homo sapiens (Human))" endpoint_name=pIC50 bound_sign== readout_number=5.57
molecule="CC1COCCC1c1ccc2c(-c3nc(N[C@H]4CCCNC4)ncc3C(F)(F)F)c[nH]c2n1 (some centres unmarked) [Compound 110]" measurement_target="CDK2/cyclin E1 complex (Homo sapiens (Human))" endpoint_name=pIC50 bound_sign== readout_number=5.66
molecule="C[C@H]1COCCN1c1ccc2c(-c3nc(N[C@H]4CCC(C)(C)NC4)ncc3C(F)(F)F)c[nH]c2n1 [Compound 26]" measurement_target="CDK2/cyclin E1 complex (Homo sapiens (Human))" endpoint_name=pIC50 bound_sign=< readout_number=5.00
molecule="C[C@H]1CC[C@H](Nc2ncc(C(F)(F)F)c(-c3c[nH]c4nc(N5CCOC[C@@H]5C)ccc34)n2)CN1 [Compound 69]" measurement_target="CDK2/cyclin E1 complex (Homo sapiens (Human))" endpoint_name=pIC50 bound_sign== readout_number=4.33
molecule="C[C@H]1COCCN1c1ccc2c(-c3nc(N[C@@H]4CNC[C@@H](F)C4)ncc3C(F)(F)F)c[nH]c2n1 [Compound 73]" measurement_target="CDK2/cyclin E1 complex (Homo sapiens (Human))" endpoint_name=pIC50 bound_sign== readout_number=5.37
molecule="CC1(C)CC[C@H](Nc2ncc(C(F)(F)F)c(-c3c[nH]c4nc(N5CCOCC5)ccc34)n2)CN1 [Compound 60]" measurement_target="CDK2/cyclin E1 complex (Homo sapiens (Human))" endpoint_name=pIC50 bound_sign=< readout_number=5.00
molecule="C[C@H]1COCCN1c1nc2[nH]cc(-c3nc(N[C@H]4CCCNC4)ncc3C(F)(F)F)c2cc1F [Compound 75]" measurement_target="CDK2/cyclin E1 complex (Homo sapiens (Human))" endpoint_name=pIC50 bound_sign== readout_number=5.62
molecule="FC(F)(F)c1cnc(N[C@H]2CCCNC2)nc1-c1c[nH]c2nc(N3CCN(C4COC4)CC3)ccc12 [Compound 24]" measurement_target="CDK2/cyclin E1 complex (Homo sapiens (Human))" endpoint_name=pIC50 bound_sign== readout_number=5.07
molecule="FC(F)(F)c1cnc(N[C@H]2CCCNC2)nc1-c1c[nH]c2nc(C3=CCOCC3)ccc12 [Compound 27]" measurement_target="CDK2/cyclin E1 complex (Homo sapiens (Human))" endpoint_name=pIC50 bound_sign== readout_number=5.95
molecule="FC(F)(F)c1cnc(N[C@H]2CCCNC2)nc1-c1c[nH]c2nc(N3CC4CC(C3)O4)ccc12 [Compound 34]" measurement_target="CDK2/cyclin E1 complex (Homo sapiens (Human))" endpoint_name=pIC50 bound_sign== readout_number=5.90
molecule="FC(F)(F)c1cnc(N[C@H]2CCCNC2)nc1-c1c[nH]c2nc(N3CC4(CCCOC4)C3)ccc12 [Compound 17]" measurement_target="CDK2/cyclin E1 complex (Homo sapiens (Human))" endpoint_name=pIC50 bound_sign== readout_number=5.26
molecule="FC(F)(F)c1cnc(N[C@H]2CCCNC2)nc1-c1c[nH]c2nc(N3CC4COCC4C3)ccc12 (some centres unmarked) [Compound 5]" measurement_target="CDK2/cyclin E1 complex (Homo sapiens (Human))" endpoint_name=pIC50 bound_sign== readout_number=5.65
molecule="O=S1(=O)CCN(c2ccc3c(-c4nc(N[C@H]5CCCNC5)ncc4C(F)(F)F)c[nH]c3n2)CC1 [Compound 25]" measurement_target="CDK2/cyclin E1 complex (Homo sapiens (Human))" endpoint_name=pIC50 bound_sign== readout_number=5.98
molecule="N#CC1CCN(c2ccc3c(-c4nc(N[C@H]5CCCNC5)ncc4C(F)(F)F)c[nH]c3n2)CC1 [Compound 20]" measurement_target="CDK2/cyclin E1 complex (Homo sapiens (Human))" endpoint_name=pIC50 bound_sign== readout_number=5.48
molecule="FC(F)(F)c1cnc(N[C@H]2CCCNC2)nc1-c1c[nH]c2nc(C34CCOCC3C4)ccc12 (some centres unmarked) [Compound 31, formate]" measurement_target="CDK2/cyclin E1 complex (Homo sapiens (Human))" endpoint_name=pIC50 bound_sign== readout_number=6.01
molecule="C[C@H]1COCCN1c1ccc2c(-c3nc(N[C@@H]4CNC[C@H](F)C4)ncc3C(F)(F)F)c[nH]c2n1 [Compound 74]" measurement_target="CDK2/cyclin E1 complex (Homo sapiens (Human))" endpoint_name=pIC50 bound_sign== readout_number=4.56
molecule="C[C@H]1CNC[C@@H](Nc2ncc(C(F)(F)F)c(-c3c[nH]c4nc(N5CCOC[C@@H]5C)ccc34)n2)C1 [Compound 72]" measurement_target="CDK2/cyclin E1 complex (Homo sapiens (Human))" endpoint_name=pIC50 bound_sign== readout_number=5.47
molecule="OCC1CCN(c2ccc3c(-c4nc(N[C@H]5CCCNC5)ncc4C(F)(F)F)c[nH]c3n2)CC1 [Compound 4]" measurement_target="CDK2/cyclin E1 complex (Homo sapiens (Human))" endpoint_name=pIC50 bound_sign== readout_number=5.83
molecule="FC(F)(F)c1cnc(N[C@H]2CCCNC2)nc1-c1c[nH]c2nc(C3CCOC3)ccc12 (single isomer, unassigned) [Compound 108]" measurement_target="CDK2/cyclin E1 complex (Homo sapiens (Human))" endpoint_name=pIC50 bound_sign== readout_number=6.02
molecule="CP(C)(=O)c1ccc2c(-c3nc(N[C@H]4CCCNC4)ncc3C(F)(F)F)c[nH]c2n1 [Compound 114]" measurement_target="CDK2/cyclin E1 complex (Homo sapiens (Human))" endpoint_name=pIC50 bound_sign== readout_number=5.76
molecule="FC(F)(F)c1cnc(N[C@H]2CCCNC2)nc1-c1c[nH]c2nc(C3CCOC3)ccc12 (single isomer, unassigned) [Compound 107]" measurement_target="CDK2/cyclin E1 complex (Homo sapiens (Human))" endpoint_name=pIC50 bound_sign== readout_number=5.82
molecule="CC1(C#N)CN(c2ccc3c(-c4nc(N[C@H]5CCCNC5)ncc4C(F)(F)F)c[nH]c3n2)C1 [Compound 21]" measurement_target="CDK2/cyclin E1 complex (Homo sapiens (Human))" endpoint_name=pIC50 bound_sign== readout_number=5.36
molecule="OC1CCN(c2ccc3c(-c4nc(N[C@H]5CCCNC5)ncc4C(F)(F)F)c[nH]c3n2)CC1 [Compound 3]" measurement_target="CDK2/cyclin E1 complex (Homo sapiens (Human))" endpoint_name=pIC50 bound_sign== readout_number=5.57
molecule="FC(F)(F)c1cnc(N[C@H]2CCCNC2)nc1-c1c[nH]c2cc(N3CCCC3)ccc12 [Compound 101, reference compound]" measurement_target="CDK2/cyclin E1 complex (Homo sapiens (Human))" endpoint_name=pIC50 bound_sign=< readout_number=5.00
